- System: NIH3T3
- assay procedure: Cytotoxic Profiling of Annotated Libraries Using Quantitative High-Throughput Screening (AID 1296008); also: % is scaled to controls: 0 for no effect and ±100 for the full control effect; nearly all actives have a fitted effect of over 60% in size
- assay conditions: Five cell lines viability, CellTiter-Glo ATP luminescence, 48-72 h; hits give low values
- Method: Cell-based phenotypic screening is a commonly used approach to discover biological pathways, novel drug targets, chemical probes and high-quality hit-to-lead molecules. […] A pintool (Kalypsys) was used to transfer 23 nL of compound solution to the 1536-well assay plates. […] Plates were left at room temperature for 10 min before imaging the ATP-coupled luminescence using a ViewLux microplate imager (PerkinElmer, Waltham, MA).
Results filed as inconclusive are left out.
Reported max response is given for each of the following molecules.
readout name: max response (%)

molecule="C/C=C(\\C)C(=O)OC1C(C)C2(O)C(C=C(CO)CC3(O)C(=O)C(C)=CC32)C2C(C)(C)C12OC(=O)C(C)C (stereo unspecified)" readout_name="max response" result_value=1.03
molecule=O=C(Nc1ccc(C(F)(F)F)cn1)N1CCN(c2ncccc2C(F)(F)F)CC1 readout_name="max response" result_value=-8.79
molecule=C=C(C)C(=O)O[C@H]1[C@H]2C(=C)C(=O)O[C@@H]2/C=C(\CO)CC/C=C(/C=O)[C@@H]1O readout_name="max response" result_value=-6.9
molecule=O=S(=O)(NCc1ccccn1)c1ccc(Br)c2ccccc12 readout_name="max response" result_value=-0.344
molecule="C[C@@H]1O[C@@H](O[C@H]2[C@@H](OC(=O)[C@]34CCC(C)(C)CC3C3=CCC5[C@@]6(C)C[C@H](O)[C@H](O[C@@H]7O[C@H](CO)[C@@H](O)[C@H](O)[C@H]7O[C@@H]7OC[C@@H](O)[C@H](O)[C@H]7O)[C@@](C)(C(=O)O)C6CC[C@@]5(C)[C@]3(C)CC4)OC[C@H](O)[C@@H]2O)[C@H](O)[C@H](O)[C@H]1O[C@@H]1OC[C@@H](O)[C@H](O)[C@H]1O (stereo partly specified)" readout_name="max response" result_value=1.11
molecule="CC1(CO)CC2C(O)C3=C(CC(C)(O)C2C1)C(=O)OC3 (stereo unspecified)" readout_name="max response" result_value=1.99
